Test system: T-47D breast
Test name: NCI-60 one-dose screen, 48 h
Measurement context: 10 µM unless noted
Compounds without any hit were thinned out: in the full panel of roughly 83,000, 20% have a hit. Calls of active or inactive are those of the source. The calls were made as follows: active = growth percent below 10; inactive = the rest.
Possible outcomes: True (active), False (inactive)

Molecule: O=C1NC(=O)C(c2cnc3ccccn23)=C1c1cn2c3c(cc(F)cc13)CN(C(=O)N1CCCCC1)CC2
Assigned category: False
--
Molecule: Cc1cc([C@@H](C)Nc2ccccc2C(=O)O)c2nc(N3CCOCC3)cc(=O)n2c1
Assigned category: True
--
Molecule: Ic1ccccc1-c1ccccc1
Assigned category: False
--
Molecule: COc1cnc2c(c1)C(=O)c1c-2n(CCCn2ccnc2)c(=O)c2cc(Cl)ccc12
Assigned category: True
--
Molecule: CCOc1cccc(/C=N/NC(=O)c2ccccc2Nc2ccnc(C(F)(F)F)c2)c1O
Assigned category: False
--
Molecule: NC(=O)N1N=C(c2ccc(Cl)cc2)CC1c1cn(-c2ccccc2)nc1-c1ccc(Cl)cc1 (stereo not given)
Assigned category: False
--
Molecule: Nc1c(C(=O)c2ccccc2)sc2nc(-c3cccs3)cc(-c3cccs3)c12
Assigned category: False
--
Molecule: Nc1cc(C(F)(F)F)c(-c2cc(N3CCOCC3)nc(N3CCOCC3)n2)cn1
Assigned category: True
--
Molecule: Cc1nn(-c2nc3ccccc3[nH]2)c2c1C(c1ccc(OCc3ccc(F)cc3)cc1)CC(=O)N2 (stereo not given)
Assigned category: False
--
Molecule: COCc1c(-c2ccc(NC(=O)Nc3cc(C(F)(F)F)ccc3F)c(F)c2)c2c(N)ncnn2c1CN1CCOCC1
Assigned category: True

###

System: MOLT-4 leukemia
Test name: NCI-60 one-dose screen, 48 h (100 = growth as untreated, 0 = no growth, -100 = all killed)
Measurement context: 10 µM unless noted
Compounds without any hit were thinned out: in the full panel of roughly 83,000, 20% have a hit.

Molecule: COC(=O)c1[nH]cnc1/N=N/N(C)CCO
growth, %: 85.8
//
Molecule: CCn1cc(-c2ccnc3[nH]c(-c4cccc(CN(C)C)c4)cc23)c(-c2ccc(NC(=O)N(C)C)cc2)n1
growth, %: 7.17
//
Molecule: COc1cc(NCCN(CC(C)C)CC(C)C)c2ncc(C)cc2c1
growth, %: 54.9
//
Molecule: C[N+](C)(CCOC(c1ccccc1)c1ccccc1)CC(=O)OCc1ccccc1
growth, %: 116
//
Molecule: Cc1ccc(NC(=O)c2ccc(CN3CCN(C)CC3)cc2)cc1Nc1nc(-c2cccnc2)cs1
growth, %: 5.98
//
Molecule: COc1cc(N2CCC(N(C)C)CC2)ccc1Nc1ncc(Cl)c(Nc2ccccc2P(C)(C)=O)n1
growth, %: 13.4
//
Molecule: CC1CCC(n2cnc3c(Cl)ncnc32)O1 (stereo not given)
growth, %: 113
//
Molecule: CNC(=O)c1c(C)oc2cc(Oc3ncnc4cc(OC)c(OC)cc34)ccc12
growth, %: 85.6
//
Molecule: COc1ccc(-c2cc3c(oc2=O)-c2ccccc2OC3OC(C)=O)cc1 (stereo not given)
growth, %: 72.4
//
Molecule: CC(C)n1c(NCCc2ccc(O)c(O)c2)nc2c1c(=O)n(C)c(=O)n2C
growth, %: 105
//
Molecule: O=C(NO)c1ccc(Cn2c(=O)n(CCc3ccccc3)c(=O)c3ccccc32)cc1
growth, %: 3.88
//
Molecule: O=C(Cn1c(=O)ccn(CCCCCCCCOc2ccc(Br)cc2)c1=O)Nc1ccc(Oc2ccc(Cl)cc2)cc1
growth, %: 47.6
//
Molecule: COc1cnc2c(c1)C(=O)c1c-2n(CCCN2CCC(O)CC2)c(=O)c2cc(Cl)ccc12
growth, %: -7.04
//
Molecule: CN[C@@H]1C[C@H]2O[C@@](C)([C@@H]1OC)n1c3ccccc3c3c4c(c5c6ccccc6n2c5c31)C(=O)N[C@H]4O
growth, %: 0.831
//
Molecule: CC/C(=C(/c1ccc(Cl)cc1)c1ccc(OCCN2CCCCC2)cc1)c1ccc(Cl)cc1
growth, %: 69.2
//
Molecule: CSC1=C(N)C(=O)c2[nH]cc(CO)c2C1=N
growth, %: -24.3
//
Molecule: COc1ccc(COc2cc3oc(=O)c4cc(C(C)O)ccc4c3cc2OC)cc1 (stereo not given)
growth, %: 54.5
//
Molecule: COc1ccc2c(c1OC)C(=O)O[C@@H]2[C@H]1c2c(c(C#CC#Cc3ccc(F)c(F)c3)c3c(c2OC)OCO3)CCN1C
growth, %: 89
//
Molecule: CCc1nc2cc(/C=C/C(=O)NO)c(F)cc2c(=O)n1CCc1ccccc1
growth, %: -2.57
//
Molecule: COc1cc(C2CC(c3ccc(Cl)cc3)=NN2c2ccc(Cl)cc2)cc(OC)c1OC (stereo not given)
growth, %: 67.8
